All figures here come from ChEMBL document CHEMBL1131289.

# System: Cavia porcellus
# assayInfo: In vivo inhibition of hyperalgesia at 30 mg/kg po dose and 3h after dosing in guinea pig
# Type: functional
Short version: inhibition in vivo at 30 mg/kg at least 40% is True, less is False.

Solved entries (count: 5):
Prompt line: Given `CN(Cc1ccccc1)C(=O)[C@H](Cc1ccc2ccccc2c1)NC(=O)[C@@H]1CCCN1C(=O)Nc1ccccc1C#N` , state whether its inhibition in vivo at 30 mg/kg is at least 40%.
Response line: True

Prompt line: Given `CN(Cc1ccccc1)C(=O)[C@H](Cc1ccc2ccccc2c1)NC(=O)[C@@H]1CCCN1C(=O)Nc1cccc(F)c1` , state whether its inhibition in vivo at 30 mg/kg is at least 40%.
Response line: False

Prompt line: Given `CN(Cc1ccccc1)C(=O)[C@H](Cc1ccc2ccccc2c1)NC(=O)[C@@H]1CCCN1C(=O)Nc1ccc(C#N)cc1` , state whether its inhibition in vivo at 30 mg/kg is at least 40%.
Response line: False

Prompt line: Given `CN(Cc1ccccc1)C(=O)[C@H](Cc1ccc2ccccc2c1)NC(=O)[C@@H]1CCCN1C(=O)Nc1ccccc1` , state whether its inhibition in vivo at 30 mg/kg is at least 40%.
Response line: False

Prompt line: Given `COCc1ccccc1NC(=O)N1CCC[C@H]1C(=O)N[C@@H](Cc1ccc2ccccc2c1)C(=O)N(C)Cc1ccccc1` , state whether its inhibition in vivo at 30 mg/kg is at least 40%.
Response line: True

More entries:
Prompt line: Given `CN(Cc1ccccc1)C(=O)[C@H](Cc1ccc2ccccc2c1)NC(=O)[C@@H]1CCCN1C(=O)Nc1ccccc1C(N)=O` , state whether its inhibition in vivo at 30 mg/kg is at least 40%.
Response line: False

Prompt line: Given `CN(Cc1ccccc1)C(=O)[C@H](Cc1ccc2ccccc2c1)NC(=O)[C@@H]1CCCN1C(=O)Nc1cccc(C#N)c1` , state whether its inhibition in vivo at 30 mg/kg is at least 40%.
Response line: False
